# Test system: U-937 (hystiocytic lymphoma)
# measurement_protocol: 72-hour IC50 determination for non-adherent cells using MTS
# Assay type: cell-based, human
# cond: 72-hour exposure; MTS; error is standard deviation of the mean, n ≧ 3; read-out: U-937, 72-hour IC50 (Table E1-1)
pIC50: −log10 of the molar value.
measurement_kind: pIC50

- compound_smiles: "CN1C(=O)[C@]2(O)C[C@]3([C@]45C[C@@]6(O)C(=O)N(C)[C@](C)(O[Si](C)(C)C(C)(C)C)C(=O)N6[C@H]4N(S(=O)(=O)c4ccccc4)c4ccccc45)c4ccccc4N(S(=O)(=O)c4ccccc4)[C@@H]3N2C(=O)[C@@]1(C)O[Si](C)(C)C(C)(C)C"
  measured_result: "< 6.00"

Asked: Reported pIC50 for "C[C@H]1C(=O)N2[C@@H](C[C@]3([C@]45C[C@H]6C(=O)N(C)[C@@H](C)C(=O)N6[C@H]4N(S(=O)(=O)c4ccccc4)c4ccccc45)c4ccccc4N(S(=O)(=O)c4ccccc4)[C@H]23)C(=O)N1C" : what is it?
Given back: < 6.00
